Value source: PubChem BioAssay

Reported growth inhibition values are given for each entry in this list.
assay: antimalarial activity against Dd2 strain (AID 2302);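 further: 0% = DMSO untreated growth and 100% = chloroquine plus artemisinin killed control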; settings: P. falciparum Dd2 in RBCs, LDH growth readout, 72 h; at 2 µM; stronger effect = higher value
Recorded endpoint: growth inhibition (%)

# Molecule, Assay value
measured = [
    ("COc1ccc(-c2ccc([N+](=O)[O-])cc2C(=O)NCC(C)Oc2ccc(C(F)(F)F)cc2)cc1 (stereo not given)", 81),
    ("CCOc1ccc(-c2n[nH]c(C(F)(F)F)c2-c2ccccc2OC)c(O)c1", 12),
    ("Cc1ccc(Nc2nc(C)cc(NCc3ccc(-n4ccnc4)cc3)n2)cc1", 100),
    ("O=C(CCCCCNC(=O)c1ccc(O)c(-c2ccc(Cl)c(Cl)c2)c1)NCc1cccc2ccccc12", 15),
    ("Cc1nc(-c2ccc(-c3ccc(NC(=O)Nc4ccc(I)c(OCCN(C)C)c4)cc3)c(C)c2)no1", 92),
]

* * *

test system: Neuropilin-2 / VEGF-C interaction (human); assay: inhibitors of NRP2–VEGF-C binding, biochemical, microplate binding format, z-score (AID 743281); details: microplate NRP2/VEGF-C binding assay; stronger effect = lower value
Recorded endpoint: z-score

# Compound, Assay value
measured = [
    ("CC(=O)NCCCCCCNC(C)=O", -0.47),
    ("CN1CCc2cc(Cl)c(O)cc2[C@@H](c2ccccc2)C1", -1.33),
    ("CO[C@H]1O[C@@H]2O[C@@]3(C)CC[C@H]4[C@H](C)CC[C@@H]([C@H]1C)[C@@]24OO3", -0.742),
    ("O=C1N[C@H](C(=O)O)CS1", -0.587),
    ("CN(C)CCCC1(c2ccc(F)cc2)OCc2cc(C#N)ccc21 (centres undefined)", 0.0126),
    ("Nc1ccc2cn[nH]c2c1", -0.807),
    ("CN(C)[C@@H]1C(=O)C(C(=O)NCN2CCCC2)=C(O)[C@@]2(O)C(=O)C3=C(O)c4c(O)cccc4[C@@](C)(O)C3CC12 (some centres undefined)", 0.267),
    ("CCC(=O)NS(=O)(=O)c1ccc(-c2c(-c3ccccc3)noc2C)cc1", 1.11),
    ("CCC1=C[C@H]2CN(C1)Cc1c([nH]c3ccccc13)[C@@](C(=O)OC)(c1cc3c(cc1OC)N(C)[C@H]1[C@@](O)(C(=O)OC)[C@H](OC(C)=O)[C@]4(CC)C=CCN5CC[C@]31[C@@H]54)C2", 1.48),
]

* * *

Reported log fold change Tl+ flux values are given for each entry in this list.
target: Calcium-activated potassium channel subunit alpha-1 (Homo sapiens) + Leucine-rich repeat-containing protein 26 (Homo sapiens) (UniProt Q12791+Q2I0M4); experiment: modulators of BK channel variants, profiling panel, selectivity assay, cell-based, U2OS BacMam, thallium flux, beta subunits (AID 1259406); settings: F380Y/Slo1WT/gamma1, at 30 µM;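 further: initial slope of Thallos dye fluorescence rise after thallium is added; log ratio against the mean of 0.3% DMSO vehicle wells on the same plate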
Sequence (Q2I0M4 whole entry, looked up, one chain of several): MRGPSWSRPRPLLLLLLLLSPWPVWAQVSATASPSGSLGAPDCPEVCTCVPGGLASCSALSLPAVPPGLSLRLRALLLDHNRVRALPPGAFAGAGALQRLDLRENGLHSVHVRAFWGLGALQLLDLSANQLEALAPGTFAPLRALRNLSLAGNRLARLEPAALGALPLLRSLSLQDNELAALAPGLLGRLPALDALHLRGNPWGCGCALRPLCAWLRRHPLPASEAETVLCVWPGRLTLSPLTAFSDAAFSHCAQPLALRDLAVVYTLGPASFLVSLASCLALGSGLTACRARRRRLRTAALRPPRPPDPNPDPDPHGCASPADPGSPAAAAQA
Activity calls are given as the source filed them.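 Rule for the calls: active = thallium flux through the channel raised or lowered by more than 3 SD from vehicle-only wells, actives on both sides; inactive = the rest.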 Numbered stars: 1 amine (or outer) side, 2 acyl side, 3 side chain; on linkers, the order of the positions; unused ones are H or OH. Bridge positions count the residues as written; N and C are the ends. Square brackets hold non-standard residues; d marks the D form. Peptide text beside a SMILES is read from it. I, II: the chains in the order shown. Actinocin(9to1) = Cc1c2oc3c(C)ccc(C(=O)[*:1])c3nc-2c(C(=O)[*:2])c(N)c1=O; NMeV = CN[CH](C(=O)O)C(C)C; Sar = CNCC(=O)O
Recorded endpoint: log fold change Tl+ flux

# Compound, Assay value
rows = [
    ("Cn1cnc([N+](=O)[O-])c1Sc1cccs1", "0.029 (inactive)"),
    ("Cc1ccc(S(=O)(=O)N2Cc3ccccc3C(C)CC23CCCCC3)cc1 (stereo not given)", "-0.0898 (inactive)"),
    ("CC1c2cccc(O)c2C(O)=C2C(=O)C3(O)C(O)=C(C(N)=O)C(=O)C(N(C)C)C3C(O)C21 (stereo not given)", "-0.0167 (inactive)"),
    ("Cc1c2oc3c(C)ccc(C(=O)NC4C(=O)NC(C(C)C)C(=O)N5CCCC5C(=O)N(C)CC(=O)N(C)C(C(C)C)C(=O)OC4C)c3nc-2c(C(=O)NC2C(=O)NC(C(C)C)C(=O)N3CCCC3C(=O)N(C)CC(=O)N(C)C(C(C)C)C(=O)OC2C)c(N)c1=O (stereo not given) (I: TVP[Sar][NMeV] / II: TVP[Sar][NMeV]; ester I:1-I:C, II:1-II:C; linker I:N-II:N via Actinocin(9to1); configuration not given here)", "-0.013 (inactive)"),
    ("NC(=NOC(=O)Nc1cccc(Cl)c1)c1ccno1", "0.0155 (inactive)"),
    ("CN(C)CCOc1ccc(/C(=C(/CCCl)c2ccccc2)c2ccccc2)cc1", "-0.0413 (inactive)"),
    ("CC(C(O)c1ccc(O)cc1)N1CCC(Cc2ccccc2)CC1 (stereo not given)", "-0.0962 (active)"),
    ("O=[N+]([O-])c1ccc(N2CCSCC2)cc1O", "0.0289 (inactive)"),
    ("C=CCNC(SC)=C(C#N)C(N)=O", "0.0338 (inactive)"),
    ("O=C(Cn1nnc(N2CCCC2)n1)NN=Cc1ccc(Cl)cc1", "-0.0411 (inactive)"),
    ("CCC(=O)NS(=O)(=O)c1ccc(-c2c(-c3ccccc3)noc2C)cc1", "0.0287 (inactive)"),
    ("Cc1ccc(NC(=S)NCCO)cc1", "-0.000511 (inactive)"),
    ("O=[N+]([O-])c1cnc(Sc2nccc(-c3cccnc3)n2)s1", "-0.074 (inactive)"),
    ("COc1ccc(C(C)=NO)cc1CN1CCCC1", "0.0507 (inactive)"),
    ("Fc1ccc(C2CCNCC2COc2ccc3c(c2)OCO3)cc1 (stereo not given)", "0.0579 (inactive)"),
    ("COC(OC)c1ccc(C#N)c(SC)n1", "-0.00294 (inactive)"),
    ("Cc1c(C(=O)Nc2ccc(N3CCOCC3)c(Cl)c2)cnn1-c1ccc(F)cc1", "-0.0278 (inactive)"),
    ("Cn1c(SCCS(=O)(=O)c2ccc(OC(F)(F)F)cc2)nnc1C(F)(F)F", "-0.00452 (inactive)"),
    ("CC(=O)Oc1ccc(OC(C)=O)c2cc3c(OC(C)=O)ccc(OC(C)=O)c3cc12", "0.0282 (inactive)"),
    ("COc1cc(C(F)(F)F)nc2ccc(C#CCOC(=O)Nc3cccc(Cl)c3)cc12", "-0.0274 (inactive)"),
]

* * *

Reported log fold change Tl+ flux values are given for each entry in this list.
system: F380Y/beta4; test: modulators of BK channel variants, profiling panel, selectivity assay, cell-based, U2OS BacMam, thallium flux, beta subunits (AID 1259406); details: at 30 µM;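 further: initial slope of Thallos dye fluorescence rise after thallium is added; log ratio against the mean of 0.3% DMSO vehicle wells on the same plate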
Recorded endpoint: log fold change Tl+ flux

# Smiles, Assay value
records = [
    ("CO[C@H]1/C=C/O[C@@]2(C)Oc3c(C)c(O)c4c(O)c(c5c(c4c3C2=O)NC2(CCN(CC(C)C)CC2)N=5)=NC(=O)/C(C)=C\\C=C\\[C@H](C)[C@H](O)[C@@H](C)[C@@H](O)[C@@H](C)[C@H](OC(C)=O)[C@@H]1C", -0.0899),
    ("CCN1CCC(O)(C#Cc2ccccc2)CC1", -0.0547),
    ("Cc1cc(C)c(C(=O)O)c(CC(C)(C)C(=O)O)c1", -0.0155),
    ("CCCCC#Cc1ccc(C(=O)NNC(=O)Nc2ccccc2)o1", 0.00448),
    ("CO[C@H]1/C=C/O[C@@]2(C)Oc3c(C)c(O)c4c(O)c(c(C=NN5CCN(C6CCCC6)CC5)c(O)c4c3C2=O)NC(=O)/C(C)=C\\C=C\\[C@H](C)[C@H](O)[C@@H](C)[C@@H](O)[C@@H](C)[C@H](OC(C)=O)[C@@H]1C", 0.152),
    ("O=C1c2c(O)cc(O)cc2O[C@H](c2ccc(O)c(O)c2)[C@@H]1O", -0.00507),
    ("O=c1c(O[C@@H]2O[C@H](CO)[C@@H](O)[C@H](O)[C@H]2O)c(-c2ccc(O)c(O)c2)oc2cc(O)cc(O)c12", -0.0759),
    ("CC(C)(C)OC(=O)N1CCC(c2nc(-c3ccc(Cl)s3)cs2)CC1", -0.0115),
    ("CCCn1c(=O)c(Br)cn(-c2ccccc2C)c1=O", 0.00537),
]

* * *

test: inhibition of 3D7 malaria parasite growth – strain 3D7 (AID 2306);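 further: 0% = DMSO wells and 100% = chloroquine plus artemisinin control wells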; conditions: P. falciparum 3D7 erythrocytic growth, LDH absorbance, 72 h; at 2 µM; stronger effect = higher value
Reported growth inhibition values are given for each entry in this list.

# Compound, Value units, growth inhibition
data = [
    ("Cc1sc(NC(=O)c2ccc([N+](=O)[O-])cc2Cl)c(C(N)=O)c1C", "%", 94),
    ("CNC(=O)c1ccccc1Nc1nc(Nc2ccc(C(=O)O)cc2)ncc1Cl", "%", 92),
    ("CNC(=O)c1ccc(/C=C/C(=O)N2CCc3ccc(-c4ccccc4)cc3C2c2cccc(C(F)(F)F)c2)cc1 (stereo not given)", "%", 91),
    ("CC1=C(C(=O)Nc2cc3cn[nH]c3cc2F)C(c2ccc(Cl)c(NS(C)(=O)=O)c2)CC(=O)N1 (stereo not given)", "%", 88),
    ("Nc1ncc(-c2cn[nH]c2)cc1-c1nc2ccc(F)cc2[nH]1", "%", 101),
    ("CCCc1cc(OC)c(CC2c3cc(O)c(Cl)cc3C(c3ccccc3)CN2C)cc1OC (stereo not given)", "%", 100),
    ("COc1ccc(Cc2c(Cl)nc3nc(N)nc(N)c3c2C)cc1", "%", 94),
    ("NCCCNc1nc(Nc2cccc(C(N)=O)c2)c2c(=O)[nH]ccc2n1", "%", 99),
    ("Cc1nc(C)c(CC(=O)Nc2ccc(-c3cccc(-c4nc5c(C)cccc5[nH]4)c3)cc2)s1", "%", 101),
    ("CC(=O)Nc1cccc(Nc2c3ccccc3nc3ccccc23)c1", "%", 82),
]
